# system: T1, monomeric soluble human BTLA extracellular domain (BTLA K31-R151) (human, UniProt Q7Z6A9 31-151)
# T1 construct: also called hBTLA; monomeric BTLA
# T1 sequence (Q7Z6A9 31-151): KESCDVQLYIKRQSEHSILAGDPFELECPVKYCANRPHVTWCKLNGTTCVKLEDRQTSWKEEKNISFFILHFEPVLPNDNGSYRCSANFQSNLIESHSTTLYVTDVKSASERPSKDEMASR
# test.description: SPR 37C, mAb captured, BTLA ECD analyte;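 further: Anti-BTLA mouse antibodies captured on a sensor chip via polyclonal anti-mouse IgG, isotype control antibody in reference channel, rates fitted after reference and blank subtraction to derive Kd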
Reported koff values are given for each entry in this list.
State the answer as a number, implicitly in s⁻¹.

Record excerpt, results attached:
binder	koff / s⁻¹
3A9 (antibody, IgG1, V domains shown, mIgG1) VH: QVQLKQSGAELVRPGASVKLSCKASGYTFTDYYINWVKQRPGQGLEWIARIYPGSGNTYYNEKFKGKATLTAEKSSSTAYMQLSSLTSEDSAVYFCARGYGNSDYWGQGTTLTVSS VL: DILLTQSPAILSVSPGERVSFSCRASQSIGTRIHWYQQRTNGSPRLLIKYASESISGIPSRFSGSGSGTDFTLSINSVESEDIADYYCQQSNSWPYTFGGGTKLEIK	1.63
4D5 (antibody, IgG1, V domains shown, mIgG1) VH: QIQLVQSGPELKKPGETVKISCKASGYTFTTYGVSWVKQAPGKVLKWMGWINTYSGVPTYADDFKGRFAFSLETSASTAYLQISNLKNEDTATYFCAPVTTILHWYFDVWGTGTTVTVSS VL: DIQMTQSPSSLSASLGERVSLTCRASQEISGYLSWLQQKPDGTIKRLIYAASTLDSGVPKRFRGSRSGSDYSLTISSLESEDFADYYCLQYASYPFTFGSGTKLEIK	0.79
24H7 (antibody, IgG1, V domains shown, mIgG1) VH: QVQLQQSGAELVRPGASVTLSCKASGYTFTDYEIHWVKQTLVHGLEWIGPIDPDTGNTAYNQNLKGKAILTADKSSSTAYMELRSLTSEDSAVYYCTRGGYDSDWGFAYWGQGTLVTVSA VL: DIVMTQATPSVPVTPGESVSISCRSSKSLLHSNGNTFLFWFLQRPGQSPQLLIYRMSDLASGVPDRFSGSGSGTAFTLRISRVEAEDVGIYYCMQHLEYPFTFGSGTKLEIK	0.00016
21C7 (antibody, IgG1, V domains shown, mIgG1) VH: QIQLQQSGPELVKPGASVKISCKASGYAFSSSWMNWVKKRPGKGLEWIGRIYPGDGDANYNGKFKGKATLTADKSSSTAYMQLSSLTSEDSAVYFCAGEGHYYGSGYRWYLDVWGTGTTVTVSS VL: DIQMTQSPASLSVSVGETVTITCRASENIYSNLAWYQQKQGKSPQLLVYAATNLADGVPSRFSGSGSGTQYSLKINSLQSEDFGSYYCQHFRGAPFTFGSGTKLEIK	0.0406

Then there is this binder:
Q: Could you share which koff value was measured for 8B4 (antibody, IgG1, V domains shown, mIgG1) VH: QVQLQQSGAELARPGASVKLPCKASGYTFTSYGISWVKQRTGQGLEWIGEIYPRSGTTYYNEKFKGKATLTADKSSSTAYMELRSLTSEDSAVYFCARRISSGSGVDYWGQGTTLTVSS VL: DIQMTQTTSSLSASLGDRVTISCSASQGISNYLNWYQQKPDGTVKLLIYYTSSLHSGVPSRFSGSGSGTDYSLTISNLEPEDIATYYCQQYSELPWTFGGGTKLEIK ?
Ans: 0.0044
